# ASSAY PROCEDURE: clinical
# MEASUREMENT CONTEXT: male, human, in vivo, po, 20 mg, T1/2

{"columns": ["STRUCTURE AS SMILES", "half-life, h"],
 "data": [
  ["CCC(C)(C)C(=O)O[C@H]1C[C@@H](C)C=C2C=C[C@H](C)[C@H](CC[C@@H](O)C[C@@H](O)CC(=O)O)[C@H]21", 3.94]
]}

###

# ASSAY PROCEDURE: Simvastatin-herb pharmacokinetic interaction study, plasma simvastatin lactone and acid by LC-MS/MS
# MEASUREMENT CONTEXT: male, human, po, 20 mg, T1/2, SLCO1B1 521CC (n = 4), after green tea
TEST READOUT: half-life (h)

{"columns": ["STRUCTURE AS SMILES", "OBSERVED"],
 "data": [
  ["CCC(C)(C)C(=O)O[C@H]1C[C@@H](C)C=C2C=C[C@H](C)[C@H](CC[C@@H]3C[C@@H](O)CC(=O)O3)[C@H]21", 3.98]
]}

###

# ASSAY PROCEDURE: Simvastatin-herb pharmacokinetic interaction study, plasma simvastatin lactone and acid by LC-MS/MS
# MEASUREMENT CONTEXT: male, human, po, 20 mg, T1/2, SLCO1B1 521TT (n = 6), after soy isoflavones
TEST READOUT: half-life (h)

{"columns": ["STRUCTURE AS SMILES", "OBSERVED"],
 "data": [
  ["CCC(C)(C)C(=O)O[C@H]1C[C@@H](C)C=C2C=C[C@H](C)[C@H](CC[C@@H]3C[C@@H](O)CC(=O)O3)[C@H]21", 4.71]
]}

###

# ASSAY PROCEDURE: Simvastatin-herb pharmacokinetic interaction study, plasma simvastatin lactone and acid by LC-MS/MS
# MEASUREMENT CONTEXT: male, human, po, 20 mg, T1/2, SLCO1B1 521TC (n = 8), baseline

{"columns": ["COMPOUND", "half-life (h)"],
 "data": [
  ["CCC(C)(C)C(=O)O[C@H]1C[C@@H](C)C=C2C=C[C@H](C)[C@H](CC[C@@H]3C[C@@H](O)CC(=O)O3)[C@H]21 [Simvastatin lactone, simvastatin]", 4.54]
]}

###

# ASSAY PROCEDURE: clinical
# MEASUREMENT CONTEXT: male, human, in vivo, po, 20 mg, Tmax

{"columns": ["STRUCTURE AS SMILES", "Tmax / h"],
 "data": [
  ["CCC(C)(C)C(=O)O[C@H]1C[C@@H](C)C=C2C=C[C@H](C)[C@H](CC[C@@H](O)C[C@@H](O)CC(=O)O)[C@H]21", 3.5]
]}

###

# ASSAY PROCEDURE: Simvastatin-herb pharmacokinetic interaction study, plasma simvastatin lactone and acid by LC-MS/MS
# MEASUREMENT CONTEXT: male, human, po, 20 mg, T1/2, 18 subjects, simvastatin 20 mg with soy isoflavones, geometric mean (% CV)
TEST READOUT: half-life (h)

{"columns": ["STRUCTURE AS SMILES", "TEST READOUT", "SCALE UNIT", "OBSERVED"],
 "data": [
  ["CCC(C)(C)C(=O)O[C@H]1C[C@@H](C)C=C2C=C[C@H](C)[C@H](CC[C@@H]3C[C@@H](O)CC(=O)O3)[C@H]21", "half-life", "h", 4.51]
]}

###

# ASSAY PROCEDURE: Simvastatin-herb pharmacokinetic interaction study, plasma simvastatin lactone and acid by LC-MS/MS
# MEASUREMENT CONTEXT: male, human, po, 20 mg, T1/2, SLCO1B1 521CC (n = 4), after soy isoflavones
TEST READOUT: half-life (h)

{"columns": ["STRUCTURE AS SMILES", "TEST READOUT", "SCALE UNIT", "OBSERVED"],
 "data": [
  ["CCC(C)(C)C(=O)O[C@H]1C[C@@H](C)C=C2C=C[C@H](C)[C@H](CC[C@@H]3C[C@@H](O)CC(=O)O3)[C@H]21", "half-life", "h", 3.9]
]}

###

# ASSAY PROCEDURE: Simvastatin-herb pharmacokinetic interaction study, plasma simvastatin lactone and acid by LC-MS/MS
# MEASUREMENT CONTEXT: male, human, po, 20 mg, T1/2, SLCO1B1 521TC (n = 8), after green tea

{"columns": ["STRUCTURE AS SMILES", "half-life / h"],
 "data": [
  ["CCC(C)(C)C(=O)O[C@H]1C[C@@H](C)C=C2C=C[C@H](C)[C@H](CC[C@@H]3C[C@@H](O)CC(=O)O3)[C@H]21", 4.72]
]}

Measured values drawn from paper PMC9171976 for this set.
